The origin of these recorded values is the supplement of paper PMC12645437.

Documented log2 fold change of degron read counts across a set of sequences
Target: T1, CRBN, Q96SW2;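 note: pooled lentiviral library of zinc finger degron-EGFP fusions in mCherry-positive Jurkat cells, FACS-sorted after compound exposure, with degron abundance counted by next-generation sequencing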
T1 chain: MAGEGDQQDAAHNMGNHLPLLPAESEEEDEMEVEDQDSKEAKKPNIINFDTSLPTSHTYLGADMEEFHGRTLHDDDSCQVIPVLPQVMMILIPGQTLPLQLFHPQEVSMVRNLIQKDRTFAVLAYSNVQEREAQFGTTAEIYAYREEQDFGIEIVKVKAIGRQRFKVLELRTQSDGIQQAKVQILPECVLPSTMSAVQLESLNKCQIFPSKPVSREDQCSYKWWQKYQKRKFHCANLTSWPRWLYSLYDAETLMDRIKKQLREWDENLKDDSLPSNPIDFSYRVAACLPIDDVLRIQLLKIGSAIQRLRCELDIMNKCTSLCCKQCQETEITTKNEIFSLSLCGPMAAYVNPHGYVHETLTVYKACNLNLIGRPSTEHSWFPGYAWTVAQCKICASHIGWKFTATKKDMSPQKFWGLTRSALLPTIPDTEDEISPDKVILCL
Assay: log2 fold change of degron read counts, EGFP-low vs EGFP+ sorted cells (limma voom), compound-induced degradation; higher = more compound-induced degradation of the degron-EGFP fusion; degrons are variants of IKZF1/3 zinc finger 2; compound dose not given here
Details: Jurkat; 18 h; compound: compound 19 (5-tert-butyl-thalidomide)
Whole data set: some 8,300 sequences, median “log2 fold change of degron read counts, EGFP-low vs EGFP+ sorted cells (limma voom), compound-induced degradation” near -1.1, cut for the highest 2% near 3.2. The sample as a whole holds a higher share of the highest values than the screen did.
measurement-type: log2 fold change of degron read counts

- seq-string: "FWCNQCGRTFTQKGNLLRHIKL [46F_47W_49N_50Q_52G_53R_54T_55F_67L_, Q9UKT9]"
  measurement-type: "log2 fold change of degron read counts"
  assay-result: -1.55
- seq-string: "FTCNICGAIFTQKGNLLRHIKL [46F_47T_49N_50I_52G_53A_54I_55F_67L_, Q9UKT9]"
  measurement-type: "log2 fold change of degron read counts"
  assay-result: -1
- seq-string: "FRCDVCGAKFTQKGNLLRHIKL [46F_47R_49D_50V_52G_53A_54K_55F_67L_, Q9UKT9]"
  measurement-type: "log2 fold change of degron read counts"
  assay-result: -1.66
- seq-string: "FLCEQCGAEFTQKGNLLRHIKL [46F_47L_49E_50Q_52G_53A_54E_55F_67L_, Q9UKT9]"
  measurement-type: "log2 fold change of degron read counts"
  assay-result: -2.34
